Data origin: paper PMC8230474

# TGT: PIM1 (Homo sapiens)
# Sequence (P11309 whole entry, species assumed): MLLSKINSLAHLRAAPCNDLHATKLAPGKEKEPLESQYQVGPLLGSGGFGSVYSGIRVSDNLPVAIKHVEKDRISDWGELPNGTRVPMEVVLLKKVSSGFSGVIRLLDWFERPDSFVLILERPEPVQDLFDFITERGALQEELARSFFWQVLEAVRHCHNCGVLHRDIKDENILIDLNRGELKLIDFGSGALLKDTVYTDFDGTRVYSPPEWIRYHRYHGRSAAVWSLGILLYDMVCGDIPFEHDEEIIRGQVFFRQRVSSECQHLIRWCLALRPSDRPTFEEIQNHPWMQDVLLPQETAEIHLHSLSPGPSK
# TEST_DESCRIPTION: Radiometric (P81 filter isotopic) kinase assay, PIM1
# Format: biochemical
# STUDY_CONDITIONS: 10 µM compound; read-out: Residual Activity of the Enzyme PIM1
Entries and their measured remaining activity at 10 µM follow.
State the answer as a number, implicitly in %.

Which value of remaining activity at 10 µM has been reported for `CCCC(=O)OCCCn1c(C)nc2c(Br)c(Br)c(Br)c(Br)c21` in the records?
19

====

# TGT: human CK2 catalytic subunit (CK2α) (Homo sapiens)
# Sequence (P68400 whole entry): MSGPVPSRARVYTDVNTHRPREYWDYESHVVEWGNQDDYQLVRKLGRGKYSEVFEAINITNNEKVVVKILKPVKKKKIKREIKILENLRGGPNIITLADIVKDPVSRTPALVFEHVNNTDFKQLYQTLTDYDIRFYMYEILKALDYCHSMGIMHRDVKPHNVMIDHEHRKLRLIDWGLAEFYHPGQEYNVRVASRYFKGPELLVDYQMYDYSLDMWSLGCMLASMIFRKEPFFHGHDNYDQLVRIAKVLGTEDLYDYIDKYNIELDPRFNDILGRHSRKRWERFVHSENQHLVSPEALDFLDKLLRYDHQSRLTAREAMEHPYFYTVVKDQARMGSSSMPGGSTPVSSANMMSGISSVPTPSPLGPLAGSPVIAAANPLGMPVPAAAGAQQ
# TEST_DESCRIPTION: Radiometric (P81 filter isotopic) kinase assay, CK2 catalytic subunit
# Assay type: biochemical
# STUDY_CONDITIONS: 5 µM compound; read-out: Residual Activity of the Enzyme CK2α
Entries and their measured remaining activity at 5 µM follow.
State the answer as a number, implicitly in %.

Completed entries (count: 3):
CCCCCCCC(=O)OCCCn1c(C)nc2c(Br)c(Br)c(Br)c(Br)c21 [Compound 6c] | 89.9
CCCC(=O)OCCCn1c(C)nc2c(Br)c(Br)c(Br)c(Br)c21 [Compound 6a] | 81.5
CCCC(=O)OCCCn1cnc2c(Br)c(Br)c(Br)c(Br)c21 [Compound 3a] | 71

Which value of remaining activity at 5 µM has been reported for O=C(O)c1ccc2c(c1)nc(Nc1cccc(Cl)c1)c1ccncc12 [CX-4945, silmitasertib, reference compound] in the records?
0

And what about the compound Cc1nc2c(Br)c(Br)c(Br)c(Br)c2n1CCCO [Compound 5] ?
26.1

And what about the compound Cc1nc2c(Br)c(Br)c(Br)c(Br)c2[nH]1 [Compound 4, reference compound] ?
18.8

And what about the compound CCCCCCCC(=O)OCCCn1cnc2c(Br)c(Br)c(Br)c(Br)c21 [Compound 3c] ?
86.1

And what about the compound CCCCCC(=O)OCCCn1c(C)nc2c(Br)c(Br)c(Br)c(Br)c21 [Compound 6b] ?
76.8

And what about the compound CCCCCC(=O)OCCCn1cnc2c(Br)c(Br)c(Br)c(Br)c21 [Compound 3b] ?
89.3
